All values here come from patent EP2582674B1.

# Tested on: C57BL/6J mice
# PROTOCOL_SUMMARY: Intra peritoneal glucose tolerance test (IPGTT)
# Type: in vivo
# ASSAY_SETUP: Mus musculus, 2 h; 30 mg/kg oral gavage 30 min before 2g/kg glucose intra peritoneally; overnight fasted male C57BL/6J mice; incremental AUC of glucose excursion vs vehicle; read-out: % reduction IPGTT at 30mg/kg
EXPERIMENTAL_READOUT: inhibition in vivo at 30 mg/kg (%)
Number only, in %; omit the unit.

compound="CC1(C)Cc2cc(F)cc(COc3ccc(C4CC4C(=O)O)cc3)c2O1 (racemic) [Example 131 (racemic)]" experimental_readout="inhibition in vivo at 30 mg/kg" numeric_readout=23.1

API: the following record is the query input.
Param readout = inhibition in vivo at 30 mg/kg; param system = C57BL/6J mice; param query = CC(Cc1ccc(OCc2cc(Cl)cc3c2OC(C)(C)C3=O)c(F)c1)C(=O)O (centres unmarked) ; response: value 10.4

---

# TGT: UniProt Q5NUL3
# Sequence (Q5NUL3 1-361): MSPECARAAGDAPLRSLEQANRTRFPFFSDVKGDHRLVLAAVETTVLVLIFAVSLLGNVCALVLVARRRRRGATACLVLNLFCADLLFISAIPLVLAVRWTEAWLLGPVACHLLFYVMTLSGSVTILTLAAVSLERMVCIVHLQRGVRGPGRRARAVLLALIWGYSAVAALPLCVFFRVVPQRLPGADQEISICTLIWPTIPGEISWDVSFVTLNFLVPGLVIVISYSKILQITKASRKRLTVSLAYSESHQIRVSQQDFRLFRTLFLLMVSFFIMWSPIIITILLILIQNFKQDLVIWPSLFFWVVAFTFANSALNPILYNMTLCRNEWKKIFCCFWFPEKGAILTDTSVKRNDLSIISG
# PROTOCOL_SUMMARY: Intracellular Ca2+ assay in human GPR120 stable cell line (FLIPR Calcium 4 dye, Flexstation)
# ASSAY_SETUP: eight concentrations from 0.00001 to 20 µM; changes (Max-Min) of fluorescence intensity
# EC50 values compiled below

compound=CC1(C)Cc2cc(F)cc(COc3ccc(CC(=O)O)cc3)c2O1 result="1 to 10 µM"
compound="CC(Cc1ccc(OCc2c(F)c(F)cc3c2OC(C)(C)C3)cc1)C(=O)O (centres unmarked)" result="> 10 µM"
compound="CC(Cc1ccc(OCc2cc(Br)cc3c2OC(C)(C)C3)cc1)C(=O)O (centres unmarked)" result="≤ 1 µM"
compound=COc1cc(CCC(=O)O)ccc1OCc1cc(F)cc2c1OC(C)(C)C2 result="1 to 10 µM"
compound="CC(Cc1cc(F)c(OCc2cc(OCc3ccccc3)cc3c2OC(C)(C)C3)c(F)c1)C(=O)O (centres unmarked)" result="1 to 10 µM"

API: the following record is the query input.
Name the reported EC50 value associated with the compound CC(=O)Nc1cc(COc2ccc(CC(C)C(=O)O)cc2)c2c(c1)CC(C)(C)O2 (centres unmarked) 1 to 10 µM

---

# TGT: human GPR120 (Homo sapiens)
# Construct: host or cells: HEK293 cells co-expressing Gqi5
# PROTOCOL_SUMMARY: Intracellular Ca2+ assay in human GPR120 stable cell line (FLIPR Calcium 4 dye, Flexstation)
# Assay type: cell-based
# ASSAY_SETUP: HEK293, % activity at 2.5 µM compared to the maximal activity of the compound of Example 25 at 2.5 µM (=100%); HEK293 cells co-expressing Gqi5; read-out: % Activity (Ex. 25 Reference Compound)
# Method: Human GPR120 stable cell line was purchased from Multispan Inc (26219 Eden Landing Road, Hayward, CA94545). This GPR120 cell line was generated in HEK293 cells co-expressing Gqi5. […] The concentration of intracellular Ca^2+ was measured as described below. […] Compounds were dissolved in 100% DMSO and diluted to desired concentrations with assay buffer and placed in the Flexstation simultaneously with the cell plate for 20 minute incubation at 37°C prior to reading. […]
# activity at 2.5 µM values compiled below
Number only, in %; omit the unit.

Name the reported activity at 2.5 µM value associated with the compound CC1(C)Cc2cc(F)cc(COc3ccc(CCC(=O)O)c4c3CCCC4)c2O1 114

Name the reported activity at 2.5 µM value associated with the compound Cc1cc2cccc(COc3ccc4c(c3)CCC4CC(=O)O)c2s1 (centres unmarked) 83.8

Name the reported activity at 2.5 µM value associated with the compound CC1(C)Cc2cc(Cl)cc(COc3ccccc3CCC(=O)O)c2O1 10.2

Name the reported activity at 2.5 µM value associated with the compound CC(Cc1ccc(OCc2ccc(F)c3c2CC(C)(C)O3)cc1)C(=O)O (centres unmarked) 121

Name the reported activity at 2.5 µM value associated with the compound CC1(C)Cc2cc(Cl)cc(COc3ccc(CCC(=O)O)c(F)c3)c2O1 143

Name the reported activity at 2.5 µM value associated with the compound CC(Cc1cc(F)c(OCc2c(F)c(F)cc3c2OC(C)(C)C3)c(F)c1)C(=O)O (centres unmarked) 141
